- studyTarget: PCSK9 (Homo sapiens (Human))
- experimentNotes: PCSK9 Alexa FRET Plus assay (displacement of AlexaFluor647 tagged cyclic peptide Reagent B)
- Format: binding
- details: Alexa FRET Plus, 0.5 nM PCSK9, 960 nM AF cyclic peptide Reagent B; read-out: IC50
Starred links: 1 amine or outer side, 2 acyl side, 3 side chain; linkers in the order of their positions; H or OH if unused. Positions of bridges follow the written chain, without caps; N, C: chain ends. Non-standard residues stand in square brackets, D forms with d. Residues, ends and D or L forms follow the SMILES beside them. Pro(cis-4-CF3) = O=C(O)[C@@H]1C[C@H](C(F)(F)F)CN1; X29 = O=C([C@H](Cc1ccc(CC=[*:3])cc1)N[*:1])[*:2]; Trp(5-F) = N[C@@H](Cc1c[nH]c2ccc(F)cc12)C(=O)O; Pro(cis-4-F) = O=C(O)[C@@H]1C[C@H](F)CN1; Hag = O=C([C@H](CCC=[*:3])N[*:1])[*:2]; mXylylene = c1cc(C[*:1])cc(C[*:2])c1; αMeP = C[C@@]1(C(=O)O)CCCN1; Mpa = O=C(O)CCS
measuredMetric: IC50

compound: NCCCC[C@@H]1NC(=O)CCSCc2cccc(c2)CSC[C@@H](C(N)=O)NC(=O)[C@@H]2C[C@H](C(F)(F)F)CN2C(=O)[C@H](Cc2ccc(O)cc2)NC(=O)[C@H](Cc2c[nH]cn2)NC(=O)[C@H](CC(=O)O)NC(=O)[C@H](Cc2c[nH]c3ccc(F)cc23)NC(=O)[C@H](Cc2c[nH]c3ccc(F)cc23)NC(=O)CNC1=O [Compound 296] ([Mpa]KG[Trp(5-F)][Trp(5-F)]DHY[Pro(cis-4-CF3)]C-NH2; linker 1-10 via mXylylene)
IC50: 0.1 to 100 nM

For the next question, use this compound.
Return reported IC50; argument: COc1ccc(C[C@@H]2NC(=O)[C@H]([C@@H](C)O)NC(=O)[C@@H]3C[C@H](F)CN3C(=O)[C@H](Cc3c[nH]c4ccc(F)cc34)NC(=O)[C@H](Cc3c[nH]c4ccc(F)cc34)NC(=O)[C@@H](C)NC(=O)[C@H](CCCCN)NC(=O)[C@@H](NC(C)=O)CC/C=C/Cc3ccc(cc3)C[C@@H](C(N)=O)NC(=O)[C@]3(C)CCCN3C2=O)cc1 [Compound 138] (Ac-[Hag]K[dA][Trp(5-F)][Trp(5-F)][Pro(cis-4-F)]TY(Me)[αMeP][X29]-NH2; staple (E) 1-10)
500 to 5000 nM

====

Form field: pIC50 (one value per entry).
- studyTarget: human PCSK9 / human LDLR EGFa domain interaction (Homo sapiens (Human), UniProt Q8NBP7)
- Sequence (Q8NBP7 153-692): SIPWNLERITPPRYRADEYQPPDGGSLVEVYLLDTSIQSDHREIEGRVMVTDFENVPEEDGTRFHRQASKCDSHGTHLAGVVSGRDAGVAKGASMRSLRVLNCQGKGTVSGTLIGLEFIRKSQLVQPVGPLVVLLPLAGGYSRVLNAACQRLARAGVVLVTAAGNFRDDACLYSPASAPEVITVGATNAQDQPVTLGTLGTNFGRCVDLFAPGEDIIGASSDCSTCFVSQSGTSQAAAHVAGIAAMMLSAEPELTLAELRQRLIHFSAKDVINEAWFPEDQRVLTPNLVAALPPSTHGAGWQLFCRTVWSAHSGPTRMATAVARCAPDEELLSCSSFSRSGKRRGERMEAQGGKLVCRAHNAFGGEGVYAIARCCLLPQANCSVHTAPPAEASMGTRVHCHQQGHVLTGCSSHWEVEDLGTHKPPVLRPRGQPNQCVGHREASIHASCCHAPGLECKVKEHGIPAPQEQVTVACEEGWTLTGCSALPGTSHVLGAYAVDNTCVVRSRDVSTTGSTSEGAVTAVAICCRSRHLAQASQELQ
- Sequence (Q8NBP7 31-152 partner): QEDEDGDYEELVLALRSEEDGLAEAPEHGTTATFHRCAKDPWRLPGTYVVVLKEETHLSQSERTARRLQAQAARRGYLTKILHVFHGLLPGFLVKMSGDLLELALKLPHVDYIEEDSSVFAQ
- experimentNotes: TR-FRET assay of inhibition of the PCSK9-LDLR protein-protein interaction
- Format: binding
- details: TR-FRET, 20 nM human PCSK9, 20 nM human LDLR EGFa domain, 2 hours room temperature; read-out: IC50
pIC50: −log10 of the molar value. Starred links: 1 amine or outer side, 2 acyl side, 3 side chain; linkers in the order of their positions; H or OH if unused. Positions of bridges follow the written chain, without caps; N, C: chain ends. Non-standard residues stand in square brackets, D forms with d. Residues, ends and D or L forms follow the SMILES beside them. Trp(5-F) = N[C@@H](Cc1c[nH]c2ccc(F)cc12)C(=O)O; mXylylene = c1cc(C[*:1])cc(C[*:2])c1; NMeY = CN[C@@H](Cc1ccc(O)cc1)C(=O)O; NMeD = CN[C@@H](CC(=O)O)C(=O)O; Ac3c = NC1(C(=O)O)CC1; Mpa = O=C(O)CCS; Sar = CNCC(=O)O

Solved cases (2 shown):
compound: CC(=O)N[C@H]1CSCc2cccc(c2)CSC[C@@H](C(N)=O)NC(=O)[C@@H]2CCCN2C(=O)[C@H](Cc2ccc(O)cc2)NC(=O)[C@H](Cc2cnc[nH]2)NC(=O)[C@H](CC(=O)O)NC(=O)[C@H](Cc2c[nH]c3ccccc23)NC(=O)[C@H](Cc2c[nH]c3ccc(F)cc23)NC(=O)CNC(=O)[C@H](CCCCN)NC1=O [Compound 177] (Ac-CKG[Trp(5-F)]WDHYPC-NH2; linker 1-10 via mXylylene)
pIC50: 4.30 to 4.68
//
compound: CN1CC(=O)N[C@@H](Cc2c[nH]c3ccccc23)C(=O)N[C@@H](Cc2c[nH]c3ccccc23)C(=O)N(C)[C@@H](CC(=O)O)C(=O)N[C@@H](Cc2cnc[nH]2)C(=O)N(C)[C@@H](Cc2ccc(O)cc2)C(=O)N2CCC[C@H]2C(=O)N[C@H](C(N)=O)CSCc2cccc(c2)CSCCC(=O)N[C@@H](CCCCN)C1=O [Compound 221] ([Mpa]K[Sar]WW[NMeD]H[NMeY]PC-NH2; linker 1-10 via mXylylene)
pIC50: 4.30 to 4.68

For the next question, use this compound.
Return reported pIC50; argument: NCCCC[C@@H]1NC(=O)CCSCc2cccc(c2)CSC[C@@H](C(N)=O)NC(=O)C2(CC2)NC(=O)[C@H](Cc2ccc(O)cc2)NC(=O)[C@H](Cc2c[nH]cn2)NC(=O)[C@H](CC(=O)O)NC(=O)[C@H](Cc2c[nH]c3ccc(F)cc23)NC(=O)[C@H](Cc2c[nH]c3ccc(F)cc23)NC(=O)CNC1=O [Compound 195] ([Mpa]KG[Trp(5-F)][Trp(5-F)]DHY[Ac3c]C-NH2; linker 1-10 via mXylylene)
4.30 to 4.68

Ref: patent US11530244B2
